- System: K. pneumoniae (ATCC 13383)
measuredEndpoint: MIC, Gram negative K. pneumoniae (µg/mL)

smilestext=CCCCCCCCCCCC(=O)N[C@@H](CCCCN)CN(CC(N)=O)C(=O)CCCN comparisonoperator=> quantitativeresult=50
smilestext=CCCCCCCCCCCCCCCC(=O)N[C@@H](C)CN(CC(=O)N[C@@H](C)CN(CC(=O)N[C@@H](Cc1ccccc1)CN(CC(=O)N[C@@H](Cc1ccccc1)CN(CC(=O)N[C@@H](Cc1ccccc1)CN(CC(N)=O)C(=O)CC(=O)O)C(=O)CC(=O)O)C(=O)CC(=O)O)C(C)=O)C(C)=O comparisonoperator=> quantitativeresult=100
smilestext=CCCCCCCCCCCCCCCC(=O)N[C@@H](C)CN(CC(=O)N[C@@H](C)CN(CC(=O)N[C@@H](CCCCN)CN(CC(=O)N[C@@H](CCCCN)CN(CC(=O)N[C@@H](CCCCN)CN(CC(N)=O)C(=O)CCCN)C(=O)CCCN)C(=O)CCCN)C(C)=O)C(C)=O comparisonoperator== quantitativeresult=15
smilestext=CCCCCCCC/C=C\CCCCCCCC(=O)N[C@@H](CCCCN)CN(CC(N)=O)C(=O)CCCN comparisonoperator== quantitativeresult=35
smilestext=CCCCCCCCCCCCCCCC(=O)N[C@@H](CCCCN)CN(CC(=O)N[C@@H](CCCCN)CN(CC(N)=O)C(=O)CCCN)C(=O)CCCN comparisonoperator== quantitativeresult=20
smilestext=CCCCCCCC/C=C\CCCCCCCC(=O)N[C@@H](CCCCN)CN(CC(=O)N[C@@H](CCCCN)CN(CC(N)=O)C(=O)CCCN)C(=O)CCCN comparisonoperator== quantitativeresult=15
smilestext=CC(=O)N(CC(=O)N[C@@H](C)CN(CC(=O)N[C@@H](CC(C)C)CN(CC(=O)N[C@@H](CC(C)C)CN(CC(=O)N[C@@H](CC(C)C)CN(CC(N)=O)C(=O)CCCN)C(=O)CCCN)C(=O)CCCN)C(C)=O)C[C@H](C)N comparisonoperator=> quantitativeresult=100

* * *

- Tested on: multi-drug resistant S. epidermidis (RP62A)
- experimentalConditions: Table 7
measuredEndpoint: MIC, Gram positive S. epidermidis

compound="CC(=O)N(CC(=O)N[C@@H](C)CN(CC(=O)N[C@@H](CC(C)C)CN(CC(=O)N[C@@H](CC(C)C)CN(CC(=O)N[C@@H](CC(C)C)CN(CC(N)=O)C(=O)CCCN)C(=O)CCCN)C(=O)CCCN)C(C)=O)C[C@H](C)N [Sequence 9]" studytarget="multi-drug resistant S. epidermidis (RP62A)" measuredendpoint="MIC, Gram positive S. epidermidis" result=">100 µg/mL"
compound="CCCCCCCCCCCCCCCC(=O)N[C@@H](C)CN(CC(=O)N[C@@H](C)CN(CC(=O)N[C@@H](CCC(=O)O)CN(CC(=O)N[C@@H](CCC(=O)O)CN(CC(=O)N[C@@H](CCC(=O)O)CN(CC(N)=O)C(=O)CC(=O)O)C(=O)CC(=O)O)C(=O)CC(=O)O)C(C)=O)C(C)=O [Sequence 7]" studytarget="multi-drug resistant S. epidermidis (RP62A)" measuredendpoint="MIC, Gram positive S. epidermidis" result=">100 µg/mL"
compound="CCCCCCCCCCCC(=O)N[C@@H](CCCCN)CN(CC(N)=O)C(=O)CCCN [Sequence 1]" studytarget="multi-drug resistant S. epidermidis (RP62A)" measuredendpoint="MIC, Gram positive S. epidermidis" result=">50 µg/mL"
compound="CCCCCCCCCCCCCCCC(=O)N[C@@H](C)CN(CC(=O)N[C@@H](C)CN(CC(=O)N[C@@H](Cc1ccccc1)CN(CC(=O)N[C@@H](Cc1ccccc1)CN(CC(=O)N[C@@H](Cc1ccccc1)CN(CC(N)=O)C(=O)CC(=O)O)C(=O)CC(=O)O)C(=O)CC(=O)O)C(C)=O)C(C)=O [Sequence 8]" studytarget="multi-drug resistant S. epidermidis (RP62A)" measuredendpoint="MIC, Gram positive S. epidermidis" result=">100 µg/mL"
